Entries and their measured Cross-reactivity score follow.
System: grass pollen allergic donor derived TCL-03 lines
method: Extended cross-reactivity study, proliferation on TCL03 DK1+DK2 (Study XR2), scoring
Format: cell-based, human
Set-up: scale not given here
condition.parameters: homologue of peptide 206 (Phl p 1); Table 42
Where no end group is shown, it is not given here.
// response body must contain only the number

| substance | outcome.measure | number |
| --- | --- | --- |
| GEEDKLRKAGELMLQFRRVK-OH [compound 376] | Cross-reactivity score | 0 |
| GEEEKLRKAGIIDMKFRRVK-OH [compound 381] | Cross-reactivity score | 0.5 |
| GEEQKLRSAGELELQFRRVK-OH [compound 377] | Cross-reactivity score | 2 |

Query: Tell me the measured Cross-reactivity score of GLNDKLRHYGIFDLEFRRVR-OH [compound 378] , please.
Response: 0

Query: Tell me the measured Cross-reactivity score of GEEQKLRSAGELELKFRRVK-OH [compound 380] , please.
Response: 0.5

Query: Tell me the measured Cross-reactivity score of GEEENVRGAGELELQFRRVK-OH [compound 379] , please.
Response: 1

---

Tested on: allergen specific T cells
method: T cell proliferation assay (72 h) on donor derived T cell lines (TCL02/TCL03)
Type: cell-based, human
condition.parameters: T cell lines TCL-02 DK1; strength of response (average relative magnitude)
Please use condition met whenever Proliferation strength (TCL-02 DK1) is not below 6, and condition not met whenever it is.

Solved entries:
| smiles.notation | label.class |
| --- | --- |
| CC[C@H](C)[C@H](NC(=O)[C@@H](NC(=O)[C@H](CCCNC(=N)N)NC(=O)[C@H](CC(C)C)NC(=O)[C@H](C)NC(=O)[C@H](CCC(=O)O)NC(=O)[C@@H](NC(=O)[C@H](CC(C)C)NC(=O)[C@@H](NC(=O)[C@H](C)NC(=O)[C@@H](NC(=O)[C@H](Cc1ccc(O)cc1)NC(=O)[C@H](C)NC(=O)[C@@H](N)CC(=O)O)C(C)C)[C@@H](C)O)[C@@H](C)O)C(C)C)C(=O)N[C@@H](C)C(=O)O | condition met |
| CC(C)[C@H](NC(=O)[C@H](C)NC(=O)[C@H](C)NC(=O)[C@H](CCCCN)NC(=O)[C@@H](N)Cc1ccccc1)C(=O)N[C@@H](C)C(=O)N[C@@H](C)C(=O)N[C@@H](C)C(=O)N[C@@H](C)C(=O)NCC(=O)N[C@@H](C)C(=O)N1CCC[C@H]1C(=O)N1CCC[C@H]1C(=O)N[C@@H](C)C(=O)N[C@@H](CC(=O)O)C(=O)O | condition not met |
| CC[C@H](C)[C@H](NC(=O)[C@H](C)NC(=O)[C@H](CCCCN)NC(=O)[C@@H](NC(=O)[C@H](CC(C)C)NC(=O)[C@H](C)NC(=O)[C@H](C)NC(=O)[C@H](CCC(=O)O)NC(=O)[C@H](Cc1ccccc1)NC(=O)[C@@H](NC(=O)[C@H](C)NC(=O)[C@H](Cc1ccc(O)cc1)NC(=O)[C@H](CCCCN)NC(=O)[C@@H](NC(=O)[C@H](CCC(=O)O)NC(=O)[C@@H]1CCCN1C(=O)[C@@H](N)CCCCN)C(C)C)C(C)C)[C@@H](C)O)C(=O)N[C@H](C(=O)O)[C@@H](C)O | condition met |
| CSCC[C@H](N)C(=O)N[C@@H](CCCNC(=N)N)C(=O)N[C@@H](CC(N)=O)C(=O)N[C@H](C(=O)N[C@@H](Cc1ccccc1)C(=O)N[C@@H](CC(=O)O)C(=O)N[C@@H](CC(=O)O)C(=O)N[C@H](C(=O)N[C@H](C(=O)N1CCC[C@H]1C(=O)N[C@@H](C)C(=O)N[C@@H](CC(=O)O)C(=O)N[C@@H](Cc1ccccc1)C(=O)N[C@@H](CCCCN)C(=O)N[C@H](C(=O)O)C(C)C)C(C)C)C(C)C)C(C)C | condition not met |
| CC[C@H](C)[C@H](NC(=O)[C@H](CC(N)=O)NC(=O)[C@H](CC(C)C)NC(=O)[C@@H](NC(=O)[C@H](CC(C)C)NC(=O)[C@@H](NC(=O)[C@H](CCCCN)NC(=O)[C@H](C)NC(=O)[C@H](CC(=O)O)NC(=O)[C@@H](N)CO)[C@@H](C)O)C(C)C)C(=O)N[C@@H](CCCCN)C(=O)N[C@@H](Cc1ccc(O)cc1)C(=O)N[C@H](C(=O)N[C@@H](CCCNC(=N)N)C(=O)N1CCC[C@H]1C(=O)O)[C@@H](C)O | condition met |

Query: Exam item: decide whether the reported Proliferation strength (TCL-02 DK1) for CC(C)C[C@H](NC(=O)[C@H](CCC(=O)O)NC(=O)CN)C(=O)N[C@@H](CCC(=O)O)C(=O)N[C@@H](CC(C)C)C(=O)N[C@@H](CCC(N)=O)C(=O)N[C@@H](Cc1ccccc1)C(=O)N[C@@H](CCCNC(=N)N)C(=O)N[C@@H](CCCNC(=N)N)C(=O)N[C@H](C(=O)N[C@@H](CCCCN)C(=O)N[C@@H](CO)C(=O)N[C@@H](CCCCN)C(=O)N[C@@H](Cc1ccc(O)cc1)C(=O)N1CCC[C@H]1C(=O)O)C(C)C is at least 6.
Response: condition met
